conditions: human gut metagenome, 24 h, 2 µM; further: call rule not given here

molecule	Bacterial Biotransformation
Clc1ccc(Cn2c(CN3CCCC3)nc3ccccc32)cc1	Compound metabolized
CN(C)CC(c1ccc(O)cc1)C1(O)CCCCC1.O=C(O)CCC(=O)O (centres undefined) [DESVENLAFAXINE SUCCINATE]	Compound NOT metabolized
CC(C)c1c(C(=O)Nc2ccccc2)c(-c2ccccc2)c(-c2ccc(F)cc2)n1CC[C@@H](O)C[C@@H](O)CC(=O)O	Compound metabolized
CN1C(C(=O)Nc2ccccn2)=C(O)c2sccc2S1(=O)=O	Compound NOT metabolized
Cc1ccc(-c2nc3ccc(C)cn3c2CC(=O)N(C)C)cc1	Compound metabolized
O=C1NCC2(CCN(CCc3ccccc3)CC2)O1 [FENSPIRIDE]	Compound metabolized
CCCCC(=O)N(Cc1ccc(-c2ccccc2-c2nnn[nH]2)cc1)[C@H](C(=O)O)C(C)C	Compound metabolized
CCN(CC)CCOC(=O)C(Cc1cccc2ccccc12)CC1CCCO1.O=C(O)C(=O)O (centres undefined) [NAFRONYL OXALATE]	Compound metabolized
CNC(=C[N+](=O)[O-])NCCSCc1csc(CN(C)C)n1	Compound NOT metabolized

----------
test: The drug is tested on Z-016 corresponding to mouse gut metagenome with ENA study accession number: PRJEB37062 and ENA sample accession number: ERS12561815 for biotransformation under anaerobic condition. The drug concentrations were measured over 9 timepoints collected between 0 and 24 hours of incubation by liquid-chromatography-coupled mass spectrometry (LC–MS); details: 2 µM

compound	Bacterial Biotransformation
CC(C)NCC(O)COc1ccc(CCOCC2CC2)cc1 (stereo not drawn)	Compound NOT metabolized
CC(C)c1c(C(=O)Nc2ccccc2)c(-c2ccccc2)c(-c2ccc(F)cc2)n1CC[C@@H](O)C[C@@H](O)CC(=O)O	Compound NOT metabolized
CCOC(=O)[C@H](CCc1ccccc1)N[C@H]1CCc2ccccc2N(CC(=O)O)C1=O	Compound metabolized
CCOC(=O)[C@H](CCc1ccccc1)N[C@@H](C)C(=O)N1[C@H](C(=O)O)C[C@H]2CCCC[C@@H]21	Compound NOT metabolized
CCCc1nn(C)c2c(=O)[nH]c(-c3cc(S(=O)(=O)N4CCN(C)CC4)ccc3OCC)nc12.O=C(O)CC(O)(CC(=O)O)C(=O)O [SILDENAFIL CITRATE]	Compound NOT metabolized
CC(C)c1nc(CN(C)C(=O)N[C@H](C(=O)N[C@@H](Cc2ccccc2)C[C@H](O)[C@H](Cc2ccccc2)NC(=O)OCc2cncs2)C(C)C)cs1	Compound metabolized
CCN1CCCC1CNC(=O)c1cc(S(N)(=O)=O)ccc1OC (stereo not drawn) [SULPIRIDE]	Compound NOT metabolized
COc1ccc2[nH]c([S+]([O-])Cc3ncc(C)c(OC)c3C)nc2n1 (stereo not drawn)	Compound metabolized
CC(Oc1c(Cl)cccc1Cl)C1=NCCN1 (stereo not drawn)	Compound NOT metabolized
COc1cc2nc(N3CCN(C(=O)c4ccco4)CC3)nc(N)c2cc1OC	Compound NOT metabolized
CCCCCCOC(=O)/N=C(/N)c1ccc(NCc2nc3cc(C(=O)N(CCC(=O)OCC)c4ccccn4)ccc3n2C)cc1.CS(=O)(=O)O [DABIGATRAN ETEXILATE MESYLATE]	Compound NOT metabolized
CS(=O)(=O)O.OC(CCN1CCCCC1)(c1ccccc1)c1ccccc1 [PRIDINOL METHANESULFONATE]	Compound NOT metabolized
COc1ccc(CCN(C)CCCC(C#N)(c2ccc(OC)c(OC)c2)C(C)C)cc1OC (stereo not drawn)	Compound NOT metabolized
CC(=O)OCC(=O)[C@@]12N=C(C)O[C@@H]1C[C@H]1[C@@H]3CCC4=CC(=O)C=C[C@]4(C)[C@H]3[C@@H](O)C[C@@]12C	Compound metabolized
Cc1ccc(-c2nc3ccc(C)cn3c2CC(=O)N(C)C)cc1	Compound NOT metabolized
CC(C)(C)NC[C@H](O)COc1ccccc1C1CCCC1.CC(C)(C)NC[C@H](O)COc1ccccc1C1CCCC1.O=S(=O)(O)O [PENBUTOLOL SULFATE]	Compound NOT metabolized
CC(C)N(CCC(C(N)=O)(c1ccccc1)c1ccccn1)C(C)C.O=P(O)(O)O (stereo not drawn) [DISOPYRAMIDE PHOSPHATE]	Compound NOT metabolized
O=C1[C@H](CC[C@H](O)c2ccc(F)cc2)[C@@H](c2ccc(O)cc2)N1c1ccc(F)cc1	Compound NOT metabolized
CCC(COC(=O)c1cc(OC)c(OC)c(OC)c1)(c1ccccc1)N(C)C.O=C(O)/C=C\C(=O)O (stereo not drawn)	Compound NOT metabolized
CC(C)OC(=O)C(C)(C)Oc1ccc(C(=O)c2ccc(Cl)cc2)cc1 [FENOFIBRATE]	Compound metabolized
NC12CC3CC(CC(C3)C1)C2	Compound NOT metabolized
CC(CN(C)C)CN1c2ccccc2CCc2ccccc21.O=C(O)/C=C\C(=O)O (stereo not drawn) [TRIMIPRAMINE MALEATE]	Compound NOT metabolized
N#Cc1ccc(C(c2ccc(C#N)cc2)n2cncn2)cc1	Compound NOT metabolized
Cc1ccc(/C(=C\CN2CCCC2)c2ccccn2)cc1	Compound NOT metabolized
CC(=O)OCC(=O)[C@@]1(O)[C@@H](C)C[C@H]2[C@@H]3CCC4=CC(=O)C=C[C@]4(C)[C@@]3(F)[C@@H](O)C[C@@]21C [BETAMETHASONE ACETATE]	Compound metabolized
Nc1nc2ccc(OC(F)(F)F)cc2s1	Compound NOT metabolized
COC(=O)Nc1nc2ccc(C(=O)c3ccccc3)cc2[nH]1	Compound metabolized
CN1CCc2cccc3c2[C@H]1Cc1ccc(O)c(O)c1-3	Compound NOT metabolized
CNC(=C[N+](=O)[O-])NCCSCc1ccc(CN(C)C)o1	Compound metabolized
CC(O)(CS(=O)(=O)c1ccc(F)cc1)C(=O)Nc1ccc(C#N)c(C(F)(F)F)c1 (stereo not drawn) [BICALUTAMIDE]	Compound NOT metabolized
CCN(CC)CCNC(C(=O)OCCC(C)C)c1ccccc1.Cl.Cl (stereo not drawn)	Compound NOT metabolized
Nc1ccc(/N=N/c2ccccc2)c(N)n1	Compound metabolized
C=CCc1ccccc1OCC(O)CNC(C)C (stereo not drawn)	Compound NOT metabolized
